Tested on: Plasmodium berghei
Assay: Screen against P. berghei liver stage (PbLuc), transformed with Luciferase, at 2uM
Format: functional, HepG2
Details: tested at 2 uM
About 2,700 (4%) of roughly 68,000 compounds showed an effect of 50% or more. The list comes from a sample in which strong results are over-represented; it also holds close analogues and randomly drawn compounds.

{"molecule": "CC(Cn1cccn1)n1cnc2cccc(Cl)c2c1=O (configuration not stated)", "INHIBITION (%)": 33.52}
{"molecule": "O=C(CCN1CCc2ccccc21)N1C[C@@H](O)[C@H](N2CCCC2)C1", "INHIBITION (%)": 15.72}
{"molecule": "COc1ccc2c(=O)ccn(CC(=O)O)c2c1", "INHIBITION (%)": 16.54}
{"molecule": "CS(=O)(=O)Cc1cc(F)ccc1NCc1nnsc1Cl", "INHIBITION (%)": -13.68}
{"molecule": "CC(C)c1nccn1CCC(=O)N1CCCC1c1cccn1C (configuration not stated)", "INHIBITION (%)": 22}
{"molecule": "O=C(O)c1ccccc1C1CCN(C2CCN(c3ccccc3)CC2)C1 (configuration not stated)", "INHIBITION (%)": 38.67}
{"molecule": "COCc1cncc2c1CCN(Cc1ccccn1)C2", "INHIBITION (%)": 0.3}
{"molecule": "CC1(C)CN(C(=O)c2occc2COc2cccc(C#N)c2)CCO1", "INHIBITION (%)": -0.41}
{"molecule": "Cc1ccc(NC2CCN(C(=O)c3sccc3C3CC3)CC2)nn1", "INHIBITION (%)": 3.38}
{"molecule": "OC(c1ccccn1)C1CCN(Cc2cc3n(n2)CCNC3)CC1 (configuration not stated)", "INHIBITION (%)": 60}
{"molecule": "CC(=O)N1CCC(C(=O)c2cc(C)cnc2N)CC1", "INHIBITION (%)": 27.16}
{"molecule": "C=C(C)C(=O)N1CCC(C(=O)c2cc(C)cnc2N)CC1", "INHIBITION (%)": 6.57}
{"molecule": "CCn1nc(C)c(CNC(=O)NCC(C)(O)c2ccc(C)o2)c1C (configuration not stated)", "INHIBITION (%)": -109.32}
{"molecule": "CC1(C)Cc2nc(C(C)(C)C)ncc2C(NC(=O)CN)C1 (configuration not stated)", "INHIBITION (%)": 21.28}
{"molecule": "C[C@@H]1CN(C(=O)CCc2nncn2C)C[C@@]1(O)C1CCC1", "INHIBITION (%)": 52.08}
{"molecule": "Fc1ccc(CN2CCC3(CC2)CCN(c2ncccn2)CC3)cc1", "INHIBITION (%)": 26.94}
{"molecule": "CCn1c(C)nnc1CN(C)C1CCN(Cc2sc(C)nc2C)C1 (configuration not stated)", "INHIBITION (%)": 65.3}
{"molecule": "CN(C)C(=O)COCc1cncc2c1CCN(Cc1ccccn1)C2", "INHIBITION (%)": 41.93}
{"molecule": "CSc1ccccc1CN1C[C@@H]2CC[C@H]1CN(Cc1[nH]cnc1C)C2", "INHIBITION (%)": 8.26}
{"molecule": "O=C(C1CNCCO1)N1CCC(c2cc(N3CCCC3)ncn2)CC1 (configuration not stated)", "INHIBITION (%)": 37.15}
{"molecule": "c1coc(-c2nc3c(c(N4CCCN5CCC[C@H]5C4)n2)CCNCC3)c1", "INHIBITION (%)": -53.14}
{"molecule": "COc1cccc(NC(=O)C(C)Cn2cc(Cl)cn2)c1 (configuration not stated)", "INHIBITION (%)": 36.45}
{"molecule": "CC1Oc2c(cccc2C(=O)N2CCN(CC(C)(C)O)CC2)NC1=O (configuration not stated)", "INHIBITION (%)": -34.12}
{"molecule": "CNc1cncc(C2CCCN2c2cc(C)ncn2)n1 (configuration not stated)", "INHIBITION (%)": 5.15}
{"molecule": "Cc1cccc(-c2noc(C)c2C(=O)NC2CCCOC2)c1 (configuration not stated)", "INHIBITION (%)": -3.96}
{"molecule": "NCCc1cccc(CN2CCN(c3cccc(Cl)c3)C(=O)C2)c1", "INHIBITION (%)": 31.35}
{"molecule": "C[C@@H]1CN(C(=O)CCc2nncn2C)CC[C@@]1(O)C1CCC1", "INHIBITION (%)": 12.43}
{"molecule": "C[C@@H]1CN(C(=O)CCc2cnn(C)c2)C[C@@]1(O)C1CCC1", "INHIBITION (%)": 11.33}
{"molecule": "Cn1ncc2c1CN(Cc1cccnc1)CC2COCC1CC1 (configuration not stated)", "INHIBITION (%)": -12.27}
{"molecule": "CCN(Cc1ccco1)C(=O)NCc1nnc2n1CCC2", "INHIBITION (%)": 11.78}
{"molecule": "CNC1CCN(C2CCN(c3ccc(-c4ccco4)cc3)CC2)CC1", "INHIBITION (%)": 7.67}
{"molecule": "Cc1cc(C)c(N(CC(O)CNCc2ccccc2)S(C)(=O)=O)c(C)c1 (configuration not stated)", "INHIBITION (%)": 25.73}
{"molecule": "c1ccc(CO[C@@H]2CC[C@H]3[C@H]2OCCN3Cc2ccsc2)nc1", "INHIBITION (%)": 22.62}
{"molecule": "O=C(CN1CCOCC1)N1CCC(c2cc(N3CCCC3)ncn2)CC1", "INHIBITION (%)": 70.81}
{"molecule": "CN(C)CCCC(=O)NC1CC(C)(C)Cc2nc(C(C)(C)C)ncc21 (configuration not stated)", "INHIBITION (%)": 35.56}
{"molecule": "c1ccc(C2CCCN(Cc3cc4n(n3)CCNC4)CC2)cc1 (configuration not stated)", "INHIBITION (%)": 9.57}
{"molecule": "O=C(CN1CCOC(Cn2cccn2)C1)NCc1ccccn1 (configuration not stated)", "INHIBITION (%)": -12.75}
